The values you see were collected from patent US20230158141A1.

Reported binding activity, % of wild type values are given for each entry in this list.
Biological target: PD-1 (UniProt Q15116 25-167, limits assumed)
Sequence (Q15116 25-167 limits assumed): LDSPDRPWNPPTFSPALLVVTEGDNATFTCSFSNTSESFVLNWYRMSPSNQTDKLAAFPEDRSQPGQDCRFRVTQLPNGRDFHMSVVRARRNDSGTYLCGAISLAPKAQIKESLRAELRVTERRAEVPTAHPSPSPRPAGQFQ
Test: ELISA; S9 on the Cys
measurement name: binding activity, % of wild type (%)

binder	observed measurement
anti-PD-1 antibody 2 HC Gly15Cys (antibody, human IgG4 S228P, kappa, V domains shown, arm on Cys15 as named in each row) VH: QVQLVESGGGVVQPCRSLRLDCKASGITFSNSGMHWVRQAPGKGLEWVAVIWYDGSKRYYADSVKGRFTISRDNSKNTLFLQMNSLRAEDTAVYYCATNDDYWGQGTLVTVSS VL: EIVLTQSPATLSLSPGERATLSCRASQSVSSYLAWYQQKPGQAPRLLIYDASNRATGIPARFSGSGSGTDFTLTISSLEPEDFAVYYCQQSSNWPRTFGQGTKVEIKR	32.5
anti-PD-1 antibody 2 HC Thr28Cys (antibody, human IgG4 S228P, kappa, V domains shown, arm on Cys28 as named in each row) VH: QVQLVESGGGVVQPGRSLRLDCKASGICFSNSGMHWVRQAPGKGLEWVAVIWYDGSKRYYADSVKGRFTISRDNSKNTLFLQMNSLRAEDTAVYYCATNDDYWGQGTLVTVSS VL: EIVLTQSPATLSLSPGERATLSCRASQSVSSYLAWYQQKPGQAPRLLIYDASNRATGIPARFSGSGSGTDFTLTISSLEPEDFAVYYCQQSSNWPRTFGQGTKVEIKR	29.9
anti-PD-1 antibody 2 HC Gly44Cys (antibody, human IgG4 S228P, kappa, V domains shown, arm on Cys44 as named in each row) VH: QVQLVESGGGVVQPGRSLRLDCKASGITFSNSGMHWVRQAPGKCLEWVAVIWYDGSKRYYADSVKGRFTISRDNSKNTLFLQMNSLRAEDTAVYYCATNDDYWGQGTLVTVSS VL: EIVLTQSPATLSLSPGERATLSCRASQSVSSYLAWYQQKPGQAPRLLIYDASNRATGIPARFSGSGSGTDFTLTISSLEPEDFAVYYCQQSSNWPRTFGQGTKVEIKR	78.3
